Molecular target: human Cav2.2 (Homo sapiens, UniProt Q00975)
Sequence (Q00975 whole entry): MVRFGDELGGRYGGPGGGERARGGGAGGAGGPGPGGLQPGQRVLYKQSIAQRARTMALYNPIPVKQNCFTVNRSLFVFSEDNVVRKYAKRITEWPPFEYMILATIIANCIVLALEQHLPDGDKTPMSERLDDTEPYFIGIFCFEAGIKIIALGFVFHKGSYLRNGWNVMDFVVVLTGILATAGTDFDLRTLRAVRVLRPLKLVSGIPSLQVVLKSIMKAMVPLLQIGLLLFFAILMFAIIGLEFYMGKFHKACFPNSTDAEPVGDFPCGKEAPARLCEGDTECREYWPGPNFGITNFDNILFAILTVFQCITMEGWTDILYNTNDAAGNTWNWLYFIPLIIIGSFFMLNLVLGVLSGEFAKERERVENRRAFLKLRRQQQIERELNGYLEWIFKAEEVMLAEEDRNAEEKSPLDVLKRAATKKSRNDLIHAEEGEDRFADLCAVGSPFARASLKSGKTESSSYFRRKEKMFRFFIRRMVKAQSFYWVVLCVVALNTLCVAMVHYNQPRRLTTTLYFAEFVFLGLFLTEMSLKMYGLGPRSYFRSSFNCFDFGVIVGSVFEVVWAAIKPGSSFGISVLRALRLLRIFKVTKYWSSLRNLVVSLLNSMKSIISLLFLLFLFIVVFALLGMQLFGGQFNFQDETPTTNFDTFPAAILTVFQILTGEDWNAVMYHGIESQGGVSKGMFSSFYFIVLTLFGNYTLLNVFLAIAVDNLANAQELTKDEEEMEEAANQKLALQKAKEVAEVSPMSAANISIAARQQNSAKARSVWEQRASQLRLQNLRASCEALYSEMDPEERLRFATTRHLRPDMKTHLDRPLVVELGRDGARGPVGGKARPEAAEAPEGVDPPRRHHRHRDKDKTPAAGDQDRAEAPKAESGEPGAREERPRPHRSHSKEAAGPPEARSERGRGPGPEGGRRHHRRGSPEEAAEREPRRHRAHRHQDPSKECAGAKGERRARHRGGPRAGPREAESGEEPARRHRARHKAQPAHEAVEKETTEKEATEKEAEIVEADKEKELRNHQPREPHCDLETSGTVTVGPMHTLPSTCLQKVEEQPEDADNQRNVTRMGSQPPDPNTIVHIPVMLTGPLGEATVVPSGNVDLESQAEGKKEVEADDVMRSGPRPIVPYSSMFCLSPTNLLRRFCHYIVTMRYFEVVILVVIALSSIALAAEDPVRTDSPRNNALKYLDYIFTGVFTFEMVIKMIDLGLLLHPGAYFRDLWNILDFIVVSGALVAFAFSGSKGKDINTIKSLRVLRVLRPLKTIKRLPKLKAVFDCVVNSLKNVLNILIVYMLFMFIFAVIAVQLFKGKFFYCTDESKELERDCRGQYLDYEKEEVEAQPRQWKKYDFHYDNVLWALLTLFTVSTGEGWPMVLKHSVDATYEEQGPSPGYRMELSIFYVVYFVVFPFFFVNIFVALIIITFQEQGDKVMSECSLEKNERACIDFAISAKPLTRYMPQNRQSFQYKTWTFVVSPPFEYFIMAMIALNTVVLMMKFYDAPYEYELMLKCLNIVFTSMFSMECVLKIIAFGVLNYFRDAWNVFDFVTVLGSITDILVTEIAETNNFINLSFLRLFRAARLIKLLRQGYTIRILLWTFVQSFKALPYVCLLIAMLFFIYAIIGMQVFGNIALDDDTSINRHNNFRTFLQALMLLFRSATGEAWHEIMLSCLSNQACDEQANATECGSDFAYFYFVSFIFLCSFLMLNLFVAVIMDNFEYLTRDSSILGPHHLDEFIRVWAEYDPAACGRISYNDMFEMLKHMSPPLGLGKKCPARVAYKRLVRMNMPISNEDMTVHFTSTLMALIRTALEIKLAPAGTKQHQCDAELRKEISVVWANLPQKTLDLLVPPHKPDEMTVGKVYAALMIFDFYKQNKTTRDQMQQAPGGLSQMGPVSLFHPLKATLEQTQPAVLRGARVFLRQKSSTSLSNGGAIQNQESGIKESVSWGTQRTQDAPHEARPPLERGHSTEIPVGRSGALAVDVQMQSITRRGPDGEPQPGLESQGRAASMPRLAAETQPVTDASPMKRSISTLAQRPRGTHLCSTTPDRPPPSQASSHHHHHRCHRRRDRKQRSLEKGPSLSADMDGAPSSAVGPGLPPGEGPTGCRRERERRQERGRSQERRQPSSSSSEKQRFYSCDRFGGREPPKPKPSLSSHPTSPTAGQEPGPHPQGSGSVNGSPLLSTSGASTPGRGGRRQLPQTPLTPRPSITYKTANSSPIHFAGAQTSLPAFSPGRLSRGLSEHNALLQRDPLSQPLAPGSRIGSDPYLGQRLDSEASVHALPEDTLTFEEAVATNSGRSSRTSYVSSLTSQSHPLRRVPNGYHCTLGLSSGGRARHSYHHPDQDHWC
Sequence (P54289 25-946 partner limits assumed): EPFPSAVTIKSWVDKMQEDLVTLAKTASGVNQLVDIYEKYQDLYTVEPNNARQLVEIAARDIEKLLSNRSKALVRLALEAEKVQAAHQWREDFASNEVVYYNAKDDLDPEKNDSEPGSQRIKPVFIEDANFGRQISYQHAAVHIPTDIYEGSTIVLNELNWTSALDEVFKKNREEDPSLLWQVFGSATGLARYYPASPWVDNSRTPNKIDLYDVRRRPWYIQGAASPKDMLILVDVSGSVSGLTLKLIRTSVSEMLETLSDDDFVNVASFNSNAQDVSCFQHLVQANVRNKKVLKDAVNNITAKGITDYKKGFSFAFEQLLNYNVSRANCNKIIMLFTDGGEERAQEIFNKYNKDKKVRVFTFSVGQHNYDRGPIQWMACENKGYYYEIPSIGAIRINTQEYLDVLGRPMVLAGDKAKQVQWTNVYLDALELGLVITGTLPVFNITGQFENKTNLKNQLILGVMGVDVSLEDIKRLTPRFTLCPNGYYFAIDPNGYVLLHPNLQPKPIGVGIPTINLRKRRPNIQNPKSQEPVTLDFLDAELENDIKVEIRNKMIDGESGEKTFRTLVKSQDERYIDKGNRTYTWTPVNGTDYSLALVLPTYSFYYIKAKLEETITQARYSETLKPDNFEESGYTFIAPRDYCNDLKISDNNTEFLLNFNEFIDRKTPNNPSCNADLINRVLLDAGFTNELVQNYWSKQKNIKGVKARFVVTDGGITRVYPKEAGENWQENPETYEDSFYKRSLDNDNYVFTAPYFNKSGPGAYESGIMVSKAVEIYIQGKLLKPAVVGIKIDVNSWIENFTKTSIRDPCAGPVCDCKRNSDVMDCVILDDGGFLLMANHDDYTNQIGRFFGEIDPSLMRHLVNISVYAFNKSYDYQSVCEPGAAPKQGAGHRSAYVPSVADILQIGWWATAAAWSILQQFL
Sequence (P54289 947-1103 partner limits assumed): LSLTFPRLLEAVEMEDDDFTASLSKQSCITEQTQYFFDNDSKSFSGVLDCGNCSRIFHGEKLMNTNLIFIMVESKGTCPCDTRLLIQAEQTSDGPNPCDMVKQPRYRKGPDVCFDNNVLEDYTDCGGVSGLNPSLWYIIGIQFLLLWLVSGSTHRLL
Sequence (P54284 whole entry partner): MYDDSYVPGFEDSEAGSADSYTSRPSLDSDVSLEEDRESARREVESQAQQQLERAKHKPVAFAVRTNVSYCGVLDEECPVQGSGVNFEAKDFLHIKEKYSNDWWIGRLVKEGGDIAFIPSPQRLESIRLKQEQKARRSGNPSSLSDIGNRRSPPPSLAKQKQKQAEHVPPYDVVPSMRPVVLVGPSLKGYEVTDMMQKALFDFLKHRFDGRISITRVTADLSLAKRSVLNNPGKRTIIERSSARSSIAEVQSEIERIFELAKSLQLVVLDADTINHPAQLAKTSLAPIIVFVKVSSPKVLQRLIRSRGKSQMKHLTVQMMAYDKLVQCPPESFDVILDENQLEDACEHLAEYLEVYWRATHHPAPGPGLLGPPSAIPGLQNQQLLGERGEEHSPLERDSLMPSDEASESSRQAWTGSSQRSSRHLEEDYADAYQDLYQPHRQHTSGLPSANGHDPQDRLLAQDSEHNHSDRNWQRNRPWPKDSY
Test: Assessment of calcium channel activity using FLIPR (Ca2+ influx in IMR32 cells)
Assay type: cell-based
Settings: 60 minute pre-incubation with compound, 2 μM nifedipine, depolarized with 80 mM KCl
metric: IC50 (nM)
# value in nM; strip the unit string

Answered cases to consult:
# molecule, target_system, metric, unit_label, observed_result
measured = [
    ("CC(C)(C)C[C@H](NCC1CCC1)C(=O)N[C@H]1CC[C@@H]2CN(S(=O)(=O)c3ccc(C(F)(F)F)cc3)C[C@@H]21 [Example 472]", "human Cav2.2 (Homo sapiens, UniProt Q00975)", "IC50", "nM", 1270),
    ("O=S(=O)(c1cccc(C(F)(F)F)c1)N(C1CC1)[C@H]1CC[C@H]2CNC[C@H]21 (relative stereo) [Example 201]", "human Cav2.2 (Homo sapiens, UniProt Q00975)", "IC50", "nM", 5200),
    ("CC(C)C[C@H](NC(=O)OC(C)(C)C)C(=O)N[C@H]1CC[C@@H]2CN(Cc3cccc(C(F)(F)F)c3)C[C@@H]21 [Example 306]", "human Cav2.2 (Homo sapiens, UniProt Q00975)", "IC50", "nM", 500),
    ("CCN[C@@H](CC(C)C)C(=O)N[C@H]1CC[C@@H]2CN(S(=O)(=O)c3cccc(C(F)(F)F)c3)C[C@@H]21 [Example 383]", "human Cav2.2 (Homo sapiens, UniProt Q00975)", "IC50", "nM", 800),
    ("O=S(=O)(N[C@@H]1CC[C@H]2CN(Cc3ccc(C(F)(F)F)c(F)c3)C[C@H]21)c1cccc(C(F)(F)F)c1 [Example 194]", "human Cav2.2 (Homo sapiens, UniProt Q00975)", "IC50", "nM", 1400),
    ("CN[C@@H](CC(C)(C)C)C(=O)N1C[C@H]2CC[C@H](NC(=O)C(c3ccc(F)cc3)c3ccc(F)cc3)[C@H]2C1 [Example 461]", "human Cav2.2 (Homo sapiens, UniProt Q00975)", "IC50", "nM", 1880),
]

Query :: Could you share which IC50 value was measured for O=C(N[C@H]1CC[C@H]2CN(CCCc3cccc(F)c3)C[C@H]21)C(C1CCCCC1)C1CCCCC1 [Example 68] ?
Result :: 1700

Query :: Could you share which IC50 value was measured for CC(C)(C)C[C@H](NCC1CCCCC1)C(=O)N[C@H]1CC[C@@H]2CN(S(=O)(=O)c3ccc(C(F)(F)F)cc3)C[C@@H]21 [Example 475] ?
Result :: 1840

====

Molecular target: UniProt Q00975
Assay: Assessment of calcium channel activity using FLIPR (Ca2+ influx in IMR32 cells)
Assay type: cell-based
Conditions: 60 minute pre-incubation with compound, 2 μM nifedipine, depolarized with 80 mM KCl
metric: pIC50
Quick note: pIC50 values are minus log10 of concentrations in mol/L.

# compound, observed_result
data = [
    ("O=C(N[C@H]1CC[C@H]2CN(Cc3ccccc3)C[C@H]21)C(C1CCCCC1)C1CCCCC1 (relative stereo) [Example 11]", 5.40),
    ("O=C(N[C@H]1CC[C@H]2CN(Cc3cccc(C(F)(F)F)c3)C[C@H]21)C(C1CCCCC1)C1CCCCC1 (relative stereo) [Example 124]", 6.15),
]

Query :: Could you share which pIC50 value was measured for CC(C)N[C@@H](CC(C)(C)C)C(=O)N[C@H]1CC[C@@H]2CN(C(=O)[C@H](Cc3ccccc3)NC(C)C)C[C@@H]21 [Example 489] ?
Result :: 5.01

Query :: Could you share which pIC50 value was measured for CN[C@H](C(=O)N[C@H]1CC[C@@H]2CN(S(=O)(=O)c3ccc(C(F)(F)F)cc3)C[C@@H]21)C(C)C [Example 451] ?
Result :: 6.10

Query :: Could you share which pIC50 value was measured for CC[C@H](C)[C@@H](C(=O)N[C@@H]1CC[C@H]2CN(S(=O)(=O)c3cccc(C(F)(F)F)c3)C[C@H]21)N(C)C(=O)OC(C)(C)C [Example 334] ?
Result :: 6.16

Query :: Could you share which pIC50 value was measured for CCCN[C@H]1CC[C@@H]2CN(S(=O)(=O)c3ccc(C(F)(F)F)cc3)C[C@@H]21 [Example 290] ?
Result :: 5.11

Query :: Could you share which pIC50 value was measured for CN[C@@H](CC(C)(C)C)C(=O)N[C@@H]1CC[C@H]2CN(Cc3ccccc3)C[C@H]21 [Example 358] ?
Result :: 5.05

====

Target: human Cav2.2 (Homo sapiens, UniProt Q00975)
Test: Assessment of calcium channel activity using FLIPR (Ca2+ influx in IMR32 cells)
Format: cell-based
Settings: 60 minute pre-incubation with compound, 2 μM nifedipine, depolarized with 80 mM KCl
Entries annotated with measured pIC50
Quick note: pIC50 values are minus log10 of concentrations in mol/L.

Answered cases to consult:
# molecule, pIC50
measured = [
    ("CC(C)(C)C[C@H](NC(=O)OC(C)(C)C)C(=O)N[C@H]1CC[C@@H]2CN(S(=O)(=O)c3cccc(C(F)(F)F)c3)C[C@@H]21 [Example 276]", 6.42),
    ("CCC[C@H](NC)C(=O)N[C@H]1CC[C@@H]2CN(S(=O)(=O)c3cccc4ccccc34)C[C@@H]21 [Example 540]", 5.78),
    ("CC(C)C[C@@H](C(=O)N[C@H]1CC[C@@H]2CN(S(=O)(=O)c3cccc(C(F)(F)F)c3)C[C@@H]21)N(C)C(=O)OC(C)(C)C [Example 322]", 6.15),
    ("CCC[C@@H](C(=O)N[C@H]1CC[C@@H]2CN(S(=O)(=O)c3cccc(C(F)(F)F)c3)C[C@@H]21)N(C)C(=O)OC(C)(C)C [Example 278]", 6.47),
    ("CCC[C@@H](C(=O)N[C@@H]1CC[C@H]2CN(Cc3ccc(C(F)(F)F)cc3)C[C@H]21)N(C)C(=O)OC(C)(C)C [Example 317]", 6.05),
]

Query :: Could you share which pIC50 value was measured for CC(C)N[C@@H](CC(C)(C)C)C(=O)N[C@H]1CC[C@@H]2CN(C(=O)[C@H](CC(C)(C)C)NC(C)C)C[C@@H]21 [Example 488] ?
Result :: 5.13

====

Entries annotated with measured pIC50
Target: human Cav2.2 (Homo sapiens, UniProt Q00975)
Assay: Assessment of calcium channel activity using FLIPR (Ca2+ influx in IMR32 cells)
Format: cell-based
Settings: 60 minute pre-incubation with compound, 2 μM nifedipine, depolarized with 80 mM KCl
Quick note: pIC50 values are minus log10 of concentrations in mol/L.

Answered cases to consult:
# record_smiles, target_system, observed_result
measured = [
    ("CN(C(=O)OC(C)(C)C)[C@@H](CC(C)(C)C)C(=O)N(C)[C@H]1CC[C@@H]2CN(S(=O)(=O)c3ccc(C(F)(F)F)cc3)C[C@@H]21", "human Cav2.2 (Homo sapiens, UniProt Q00975)", 5.94),
    ("CN[C@@H](CC(C)C)C(=O)N[C@@H]1CC[C@H]2CN(Cc3ccc(F)c(C(F)(F)F)c3)C[C@H]21", "human Cav2.2 (Homo sapiens, UniProt Q00975)", 5.09),
]

# evaluate next
Query :: Could you share which pIC50 value was measured for CC(C)(C)C[C@H](N)C(=O)N[C@H]1CC[C@@H]2CN(c3ccc(C(F)(F)F)cn3)C[C@@H]21 ?
Result :: 5.50

====

Molecular target: human Cav2.2 (Homo sapiens, UniProt Q00975)
Assay: Assessment of calcium channel activity using FLIPR (Ca2+ influx in IMR32 cells)
Type: cell-based
Details: 60 minute pre-incubation with compound, 2 μM nifedipine, depolarized with 80 mM KCl
metric: pIC50
Quick note: pIC50 values are minus log10 of concentrations in mol/L.

Query :: Could you share which pIC50 value was measured for CN(C(=O)OC(C)(C)C)[C@@H](CC(C)(C)C)C(=O)N[C@@H]1CC[C@H]2CN(Cc3ccccc3)C[C@H]21 ?
Result :: 5.78

Query :: Could you share which pIC50 value was measured for CC(C)[C@@H](C(=O)N[C@@H]1CC[C@H]2CN(S(=O)(=O)c3cccc(C(F)(F)F)c3)C[C@H]21)N(C)C(=O)OC(C)(C)C ?
Result :: 5.99

Query :: Could you share which pIC50 value was measured for CN[C@@H](CC(C)(C)C)C(=O)N[C@H]1CC[C@@H]2CN(S(=O)(=O)c3ccc(C(F)(F)F)cc3)C[C@@H]21 ?
Result :: 5.53

Query :: Could you share which pIC50 value was measured for CN[C@@H](CC(C)(C)C)C(=O)N[C@H]1CC[C@@H]2CN(S(=O)(=O)c3cccc(C(F)(F)F)c3)C[C@@H]21 ?
Result :: 6.05

Query :: Could you share which pIC50 value was measured for CC(C)C(C(=O)N[C@H]1CC[C@H]2CN(Cc3cccc(C(F)(F)F)c3)C[C@H]21)c1ccccc1 (relative stereo) ?
Result :: 6.22

Query :: Could you share which pIC50 value was measured for CN[C@@H](CC(C)C)C(=O)N[C@H]1CC[C@@H]2CN(S(=O)(=O)c3ccc(C(F)(F)F)cc3)C[C@@H]21 ?
Result :: 5.67

Query :: Could you share which pIC50 value was measured for CC(C)(C)C[C@H](NC(=O)OC(C)(C)C)C(=O)N[C@H]1CC[C@@H]2CN(Cc3ccccc3)C[C@@H]21 ?
Result :: 5.39

Query :: Could you share which pIC50 value was measured for CCC[C@H](NC)C(=O)N[C@@H]1CC[C@H]2CN(S(=O)(=O)c3ccc(C(F)(F)F)cc3)C[C@H]21 ?
Result :: 5.99

Query :: Could you share which pIC50 value was measured for O=C(N[C@@H]1CC[C@H]2CN(Cc3ccc(C(F)(F)F)cc3)C[C@H]21)[C@@H]1CCCCN1 ?
Result :: 5.22

Query :: Could you share which pIC50 value was measured for CC(C)C[C@@H](C(=O)N[C@@H]1CC[C@H]2CN(S(=O)(=O)c3ccc(C(F)(F)F)cc3)C[C@H]21)N(C)C(=O)OC(C)(C)C ?
Result :: 6.16

Query :: Could you share which pIC50 value was measured for c1ccc(CN2C[C@@H]3CC[C@H](NC4CC4)[C@@H]3C2)cc1 (relative stereo) ?
Result :: 4.39

Query :: Could you share which pIC50 value was measured for CCC[C@H](NCC(C)(C)C)C(=O)N[C@@H]1CC[C@H]2CN(S(=O)(=O)c3cccc(C(F)(F)F)c3)C[C@H]21 ?
Result :: 6.26

Query :: Could you share which pIC50 value was measured for CC(C)C[C@@H](C(=O)N[C@@H]1CC[C@H]2CN(S(=O)(=O)c3cccc(C(F)(F)F)c3)C[C@H]21)N1CCCC1 ?
Result :: 6.15
